Target: Plasmodium falciparum protein kinase 6 (PK6, PF3D7_1337100)
Test: PfPK6 kinase inhibitors, biochemical, TCAMS library (AID 1159586)
Conditions: recombinant PfPK6, Kinase-Glo ATP depletion luminescence
Entries with a potency or affinity are not part of this list. Active and inactive are the calls of the source. How the calls were made is not given here.
observable: outcome

Here is how some molecules turned out for outcome.
Look up outcome with Plasmodium falciparum protein kinase 6 (PK6, PF3D7_1337100) for this molecule: `O=S(=O)(NCCN1CCCC1)c1ccc(-c2cccc(CNC3Cc4ccccc4C3)c2)s1` inactive

Look up outcome with Plasmodium falciparum protein kinase 6 (PK6, PF3D7_1337100) for this molecule: `NC(=NCc1ccc(Cl)c(Cl)c1)NC(=NCCCCCCN=C(NC(N)=NCc1ccc(Cl)c(Cl)c1)N1CCCCC1)N1CCCCC1` inactive

Look up outcome with Plasmodium falciparum protein kinase 6 (PK6, PF3D7_1337100) for this molecule: `c1cnc2ccc(NCc3ccc(-c4ccc(CNC5CCCC5)cc4)cc3)cc2c1` inactive

Look up outcome with Plasmodium falciparum protein kinase 6 (PK6, PF3D7_1337100) for this molecule: `Clc1ccccc1CN1CCC(NCc2cccc(-n3ccnc3)c2)CC1` inactive

Look up outcome with Plasmodium falciparum protein kinase 6 (PK6, PF3D7_1337100) for this molecule: `NCc1ccc(CNCc2ccc(-c3ccc(-c4nc5ccc(C(F)(F)F)cc5[nH]4)s3)cc2)cc1` inactive

Look up outcome with Plasmodium falciparum protein kinase 6 (PK6, PF3D7_1337100) for this molecule: O=C(NCCCCN1CCC(c2ccc3c(c2OCC2COCO2)CCCC3)CC1)c1ccc(-c2ccc(C(F)(F)F)cc2)cc1 (centres undefined) inactive

---
Look up outcome with Plasmodium falciparum protein kinase 6 (PK6, PF3D7_1337100) for this molecule: CCC(CO)NCC(O)Cn1c2ccc(Br)cc2c2cc(Br)ccc21 (centres undefined) inactive

Look up outcome with Plasmodium falciparum protein kinase 6 (PK6, PF3D7_1337100) for this molecule: `CCCc1nc2c(N3CC(NC(=O)/C=C/c4ccccc4)C3)cccc2n1C1CC1` inactive

Look up outcome with Plasmodium falciparum protein kinase 6 (PK6, PF3D7_1337100) for this molecule: `Cc1cc(N(C)C)nc(Nc2ccc(NC(=O)c3ccc(Br)o3)cc2)n1` inactive

Look up outcome with Plasmodium falciparum protein kinase 6 (PK6, PF3D7_1337100) for this molecule: CN(C)CCn1c(=N)n(CC(O)c2ccc(Cl)c(Cl)c2)c2ccccc21 (centres undefined) inactive

Look up outcome with Plasmodium falciparum protein kinase 6 (PK6, PF3D7_1337100) for this molecule: `CCCCNC(=O)[C@@H]1CCCN1C(=O)c1ccc(O)c(-c2ccc(Cl)c(Cl)c2)c1` inactive

Look up outcome with Plasmodium falciparum protein kinase 6 (PK6, PF3D7_1337100) for this molecule: CC(C)=CC1C(C(=O)n2c(N)nc3ccccc32)C1(C)C (centres undefined) inactive

Look up outcome with Plasmodium falciparum protein kinase 6 (PK6, PF3D7_1337100) for this molecule: `COc1ccccc1N1CCN(CCCCNC(=O)c2ccc(NC(=O)c3ccc(OC(F)(F)F)cc3)cc2)CC1` inactive

Look up outcome with Plasmodium falciparum protein kinase 6 (PK6, PF3D7_1337100) for this molecule: `O=[N+]([O-])c1cccc(C=NNc2ccnc3cc(F)ccc23)c1` inactive

Look up outcome with Plasmodium falciparum protein kinase 6 (PK6, PF3D7_1337100) for this molecule: `O=c1c(NCCCN(Cc2ccc(F)cc2)c2ccccn2)c(NCc2ccncc2)c1=O` inactive
